tested on: 786-0 renal; test: NCI tumour cell line growth inhibition, 48 h
measuredAttribute: TGI

Guide cases for TGI, answers given:
{"columns": ["compound", "measuredAttribute", "recordedResult"],
 "data": [
  ["CC(C)(C)C(=O)OCC(COC(=O)C(C)(C)C)[N+](=O)[O-]", "TGI", "> 100 µM"],
  ["CC(C)(CN1CCCCC1)C(=O)/C=C/c1c(Cl)cccc1Cl", "TGI", "2.89 µM"],
  ["C=C1C(=O)O[C@H]2[C@H]1CC/C(COC(=O)C(=O)c1cn(C)c3ccc(OC)cc13)=C\\CC[C@@]1(C)O[C@@H]21", "TGI", "7.56 µM"],
  ["C=CCNC(=S)OCCCCCCCCCC", "TGI", "32.6 µM"],
  ["COC1(OC)c2ccccc2C2(O)c3ccccc3C(=O)C12 (stereo not drawn)", "TGI", "> 100 µM"],
  ["CCOC(=O)C1(C(=O)OCC)CC=C(C)CC12C(=O)Nc1ccccc12 (stereo not drawn)", "TGI", "> 100 µM"],
  ["CC(=O)N1C(OCc2ccccc2)CCN1c1ccccc1 (stereo not drawn)", "TGI", "> 10 µM"],
  ["COC(=O)c1ccccc1N=Cc1ccc(N(CCC#N)S(=O)(=O)c2ccccc2)cc1", "TGI", "> 100 µM"]
]}

Exercise: Lab note: need TGI with 786-0 renal for entry `Cn1cnc([N+](=O)[O-])c1Sc1nnc(C(F)(F)F)n1C` , please look it up.
Solution: > 100 µM

Exercise: Lab note: need TGI with 786-0 renal for entry O=C1CC(c2c[nH]c3ccccc23)C(=O)N1c1ccccc1 (stereo not drawn) , please look it up.
Solution: > 100 µM

Exercise: Lab note: need TGI with 786-0 renal for entry `CC(C)=CCC/C(C)=C/CC/C(C)=C/CSc1ccc(Cl)cc1C(=O)O` , please look it up.
Solution: 30.8 µM

----------
test system: SR leukemia; assay: NCI tumour cell line growth inhibition, 48 h; in the data active means GI50 below about 0.43 µM; inactive means the rest
Your response should consist of one outcome taken from active, inactive

Example results:
{"columns": ["molecule", "className"],
 "data": [
  ["CC1(C)CC[C@]2(C(=O)O)CC[C@]3(C)[C@H](CC[C@@H]4[C@@]5(C)CCC(=O)C(C)(C)[C@@H]5CC[C@]43C)[C@H]2[C@H]1OC(=O)C(F)(F)F", "inactive"],
  ["CCOC(=O)c1cnc2c(cnn2CC)c1NN=C(C)C", "inactive"],
  ["COc1ccc(Cn2cc(Cn3c(=O)c(-c4nc5ccccc5[nH]4)cc4ccccc43)nn2)c(OC)c1OC", "active"],
  ["COC(=O)[C@]12CC[C@@H](C)[C@H](C)[C@@H]1C1=CC[C@@H]3[C@@]4(C)C=C(O)C(=O)C(C)=C4CC[C@@]3(C)[C@]1(C)CC2", "inactive"],
  ["COc1cccc2c(Nc3ccc(C(=O)NCCN(C)C)cc3)cc(-c3ccccc3)nc12", "inactive"]
]}

Next item in the queue.
Exercise: What was the test verdict on `CN1CCN(c2cc(Nc3cc(C4CC4)[nH]n3)nc(Nc3ccc(CC(=O)NCc4cccc(F)c4)cc3)n2)CC1` ?
Solution: active

----------
tested on: RXF 393 renal; assay: NCI tumour cell line growth inhibition, 48 h; in the data active means GI50 below about 0.43 µM; inactive means the rest
Your response should consist of one outcome taken from active, inactive

Example results:
{"columns": ["compoundStructureString", "className"],
 "data": [
  ["COc1ccc(-c2[nH]ncc2-c2cc(OC)c(OC)c(OC)c2)cc1", "active"],
  ["O=C1C(=O)c2c(nc3ncccn23)-c2ccccc21", "inactive"],
  ["NCC(=O)CCC(=O)O", "inactive"],
  ["CN1CCN(c2cc(Nc3cc(C4CC4)[nH]n3)nc(Nc3ccc(CC(=O)NCc4cccc(F)c4)cc3)n2)CC1", "active"]
]}

Exercise: What was the test verdict on `CCCCC#Cc1cccc(=O)o1` ?
Solution: inactive

Exercise: What was the test verdict on `CCOC(=O)c1cnc2c(cnn2CC)c1NN=C(C)C` ?
Solution: inactive

Exercise: What was the test verdict on `Cc1ccc(-n2c(-c3ccc(Cl)cc3)cs/c2=N\NC(=O)COc2n[nH]c(=O)c3ccccc23)cc1` ?
Solution: inactive

----------
system: SF-268 CNS; assay: NCI tumour cell line growth inhibition, 48 h; in the data active = GI50 below about 0.43 µM; inactive = the rest
Your response should consist of one outcome taken from active, inactive

Example results:
{"columns": ["compound", "className"],
 "data": [
  ["C#CC#CC#CC#CC#CC#CC#CC#CCC1OC[C@H](COC(=O)O[C@@H](C(=O)O[C@H]2C[C@@]3(O)[C@@H](OC(=O)c4ccccc4)[C@@H]4[C@]5(OC(C)=O)CO[C@@H]5C[C@H](O)[C@@]4(C)C(=O)[C@H](OC(C)=O)C(=C2C)C3(C)C)[C@@H](NC(=O)c2ccccc2)c2ccccc2)O1 (stereo partly drawn)", "inactive"],
  ["c1ccc2c(c1)ccc1c3ccccc3ccc21", "inactive"],
  ["CCCCC#Cc1cccc(=O)o1", "inactive"]
]}

Exercise: What was the test verdict on `COc1ccc(-c2nn(-c3cccc(NC(=O)Nc4cccc(C(F)(F)F)c4)c3)cc2-c2ccncc2)cc1Cl` ?
Solution: inactive

Exercise: What was the test verdict on C[C@@]12CCC[C@@](C)(C(=O)O)C1CC[C@@]13CC(=O)[C@@](CO)(CCC12)C3 (stereo partly drawn) ?
Solution: inactive

Exercise: What was the test verdict on `Nc1c(O)c(S(=O)(=O)O)c(O)c2c1C(=O)c1ccccc1C2=O` ?
Solution: inactive

Exercise: What was the test verdict on `COc1ccc(-c2[nH]ncc2-c2cc(OC)c(OC)c(OC)c2)cc1` ?
Solution: active

Exercise: What was the test verdict on `C=C1C(=O)O[C@H]2[C@H]1CC(=O)/C(C)=C\CC[C@@]1(C)O[C@@H]21` ?
Solution: inactive

----------
system: SK-MEL-2 melanoma; experiment: NCI tumour cell line growth inhibition, 48 h
Overview of reported log10 TGI across a group of compounds:
Values below are the log10 of the recorded TGI, with µM as the unit.

Guide cases for log10 TGI, answers given:
{"columns": ["compound", "targetOfAssay", "log10 TGI"],
 "data": [
  ["Clc1ccc(Nc2nc3ccccc3c3occc23)cc1", "SK-MEL-2 melanoma", 1.34],
  ["CC(C)=CCC/C(C)=C/CC/C(C)=C/CSc1ccc(Cl)cc1C(=O)O", "SK-MEL-2 melanoma", 1.46],
  ["Oc1ccc(-c2nc3ccc4[nH]ncc4c3c3c2CCCC3)c2cccnc12", "SK-MEL-2 melanoma", 0.54],
  ["CC(=O)OC1C(O)C(C)OC(OC(=O)C2CCC3C(C2)OC2(CC(OC(=O)/C=C/c4ccccc4)C(C)CO2)C32CO2)C1OC1OC(C)C(O)C(O)C1O (stereo unspecified)", "SK-MEL-2 melanoma", -1.41]
]}

Field: next compound
Exercise: Lab note: need log10 TGI with SK-MEL-2 melanoma for entry `CCCCc1nc2cc(/C=C/C(=O)NO)ccc2n1CCN(CC)CC` , please look it up.
Solution: -0.30

----------
tested on: SW-620 colon; assay: NCI tumour cell line growth inhibition, 48 h; in the data active = GI50 below about 0.43 µM; inactive = the rest
Your response should consist of one outcome taken from active, inactive

Example results:
{"columns": ["molecule", "targetOfAssay", "className"],
 "data": [
  ["COc1ccc(-c2nn(-c3cccc(NC(=O)Nc4cccc(C(F)(F)F)c4)c3)cc2-c2ccncc2)cc1Cl", "SW-620 colon", "inactive"],
  ["c1ccc2c(c1)ccc1c3ccccc3ccc21", "SW-620 colon", "inactive"],
  ["NCC(=O)CCC(=O)O", "SW-620 colon", "inactive"],
  ["CCC(C)CC(CC)NCCN1CCN(C(CC)CC(C)CC)C1=S (centres undefined)", "SW-620 colon", "inactive"],
  ["Cc1ccccc1NC(=O)c1sc2nc3c(cc2c1N)C(=O)CCC3", "SW-620 colon", "inactive"]
]}

Exercise: What was the test verdict on `Oc1ccc(-c2nc3ccc4[nH]ncc4c3c3c2CCCC3)c2cccnc12` ?
Solution: active

Exercise: What was the test verdict on COC1CCC(n2c([C@@H]3CCCC(=O)N3c3ccc(F)c(F)c3)nc3cc(-c4c(C)noc4C)ccc32)CC1 (some centres undefined) ?
Solution: inactive

Exercise: What was the test verdict on `Clc1ccc(Nc2nc3ccccc3c3occc23)cc1` ?
Solution: inactive

Exercise: What was the test verdict on C[C@@]12CCC[C@@](C)(C(=O)O)C1CC[C@@]13CC(=O)[C@@](CO)(CCC12)C3 (some centres undefined) ?
Solution: inactive

Exercise: What was the test verdict on `Cc1[nH]nc(C(=O)Nc2n[nH]c3ccccc23)c1[N+](=O)[O-]` ?
Solution: inactive

Exercise: What was the test verdict on `O=C1C(=O)c2c(nc3ncccn23)-c2ccccc21` ?
Solution: active

----------
Overview of reported TGI across a group of compounds:
test system: M14 melanoma; test: NCI tumour cell line growth inhibition, 48 h
Peptide text beside a SMILES is read from it. * marks the point of attachment. OSu = O=C1CCC(=O)N1O*; OBn = c1ccc(CO*)cc1; Bn = c1ccc(C*)cc1

Guide cases for TGI, answers given:
{"columns": ["compound", "TGI"],
 "data": [
  ["Cc1nn(C(=O)c2ccc(Cl)cc2)c2c1C(c1ccco1)SC(N)=N2 (centres undefined)", "> 10 µM"],
  ["COC1=C(OC)C(=O)C(Cc2c(Cl)nc3n2CCS3)=C(C)C1=O", "27.2 µM"],
  ["CC(C)CC(NC(=O)C(N)CCC(=O)OCc1ccccc1)C(=O)NC(COCc1ccccc1)C(=O)NC(Cc1ccccc1)C(=O)ON1C(=O)CCC1=O (centres undefined) (H-E(OBn)LS(Bn)F-OSu; configuration not given here)", "> 100 µM"]
]}

Field: next compound
Exercise: Give its TGI value. Item: `COc1cc(C)cc(OC)c1/C=C/C(=O)O`
Solution: > 100 µM
